src = the supplement of paper PMC6470124

assay: absolute recovery over mixed-bed multilayer solid-phase extraction; higher = better recovery; settings: wastewater influent; enrichment method: SPE
Below is a list of entries, each paired with its recorded absolute recovery value.
metric.name: absolute recovery (%)

{"molecule": "COc1ccc2c(c1)c(CC(=O)OCC(=O)[O-])c(C)n2C(=O)c1ccc(Cl)cc1", "measurement": 116}
{"molecule": "CNC(=O)Nc1ccc(C(C)C)cc1", "measurement": 98.9}
{"molecule": "CCC(C)C(=O)OC1CC(O)C=C2C=CC(C)C(CCC(O)CC(O)CC(=O)[O-])C21 (stereo unspecified)", "measurement": 95.1}
{"molecule": "OC(Cc1ccccc1Cl)(Cn1[nH]cnc1=S)C1(Cl)CC1 (stereo unspecified)", "measurement": 14.7}
{"molecule": "Cc1cc(Cl)ccc1OC(C)C(=O)[O-] (stereo unspecified)", "measurement": 94.2}
{"molecule": "COC=C(C(=O)OC)c1ccccc1Oc1cc(Oc2ccccc2C#N)ncn1", "measurement": 93.6}
{"molecule": "CN(C)c1nc(=O)n(C2CCCCC2)c(=O)n1C", "measurement": 88.8}
{"molecule": "Cc1ccc(C(C)NC(=O)C(NC(=O)OC(C)C)C(C)C)cc1 (stereo unspecified)", "measurement": 98.8}
{"molecule": "CCNc1nc(N)nc(Cl)n1", "measurement": 94.6}
{"molecule": "CC12CCC(=O)C=C1CCC1C2C(=O)CC2(C)C1CCC2(O)C(=O)CO (stereo unspecified)", "measurement": 95.2}
{"molecule": "CCOC1Oc2ccc(OS(C)(=O)=O)cc2C1(C)C (stereo unspecified)", "measurement": 92}
{"molecule": "COc1nc(NC(=O)[N-]S(=O)(=O)c2ccccc2C(F)(F)F)nc(C(F)(F)F)n1", "measurement": 103}
{"molecule": "CCNc1nc(O)nc(NC(C)C)n1 [Atrazin-2-Hydroxy]", "measurement": 90}
{"molecule": "COc1ccc(C(=O)c2ccccc2)c(O)c1 [Benzophenon-3 (=2-Hydroxy-4-methoxybenzophenon)]", "measurement": 77.4}
{"molecule": "CC1(C(=O)[O-])CCC2(C)CCC3(C)C(=CC(=O)C4C5(C)CCC(O)C(C)(C)C5CCC43C)C2C1 (stereo unspecified)", "measurement": 90.8}
{"molecule": "C[NH+](C)CCCC1(c2ccc(F)cc2)OCc2cc(C#N)ccc21 (stereo unspecified)", "measurement": 93.9}
{"molecule": "O=C([O-])c1cn(C2CC2)c2cc(N3CC[NH2+]CC3)c(F)cc2c1=O", "measurement": 73.8}
{"molecule": "CC(C)N(C(=O)COc1nnc(C(F)(F)F)s1)c1ccc(F)cc1", "measurement": 83.5}
{"molecule": "N#Cc1c[nH]cc1-c1cccc2c1OC(F)(F)O2", "measurement": 77}
{"molecule": "CCC(C)c1cc([N+](=O)[O-])cc([N+](=O)[O-])c1[O-] (stereo unspecified)", "measurement": 123}
{"molecule": "CC[NH+]1CCCC1CNC(=O)c1cc(S(N)(=O)=O)ccc1OC (stereo unspecified)", "measurement": 93.3}
{"molecule": "COCC(C)N(C(=O)C(=O)[O-])c1c(C)csc1C (stereo unspecified)", "measurement": 86.6}
{"molecule": "CC=C1[NH+](C)C(C)CC1(c1ccccc1)c1ccccc1 (stereo unspecified)", "measurement": 75.8}
{"molecule": "O=C([O-])c1ccc(-c2ccccc2-c2nn[nH]n2)cc1", "measurement": 95.2}
{"molecule": "COC(=O)c1ccc(CNS(C)(=O)=O)cc1S(=O)(=O)[N-]C(=O)Nc1nc(OC)cc(OC)n1", "measurement": 98.7}
{"molecule": "C[NH2+]C1(c2ccccc2Cl)CCCCC1=O (stereo unspecified)", "measurement": 90.4}
{"molecule": "COc1ccc(C(=CC(=O)N2CCOCC2)c2ccc(Cl)cc2)cc1OC", "measurement": 91.4}
{"molecule": "CCCCc1[nH+]cc(C=C(Cc2cccs2)C(=O)[O-])n1Cc1ccc(C(=O)[O-])cc1", "measurement": 94.2}
{"molecule": "C[NH2+]C(C)C(O)c1ccccc1 (stereo unspecified)", "measurement": 89.4}
{"molecule": "CCCC1CC(C(=O)NC(C(C)Cl)C2OC(SC)C(O)C(O)C2O)[NH+](C)C1 (stereo unspecified)", "measurement": 78.7}
{"molecule": "CON=C(C(=O)[O-])c1ccccc1COc1ccccc1C", "measurement": 89.8}
{"molecule": "CS(=O)(=O)c1ccc(C(=O)[O-])c(Cl)c1", "measurement": 95.3}
{"molecule": "CC[N+]([O-])(CC)CC(=O)Nc1c(C)cccc1C [Lidocaine-N-Oxide]", "measurement": 98.9}
{"molecule": "CC(=O)OCC(=O)C1(O)C(C)CC2C3CCC4=CC(=O)C=CC4(C)C3(F)C(O)CC21C (stereo unspecified) [Betamethasone 21-acetate C]", "measurement": 98.3}
{"molecule": "O=C(Cc1ccccc1)NC(=NOCC1CC1)c1c(C(F)(F)F)ccc(F)c1F", "measurement": 84.3}
{"molecule": "CN1C(=O)CN=C(C2=CCCCC2)c2cc(Cl)ccc21", "measurement": 72.4}
